Tgt: Adenosine receptor A1 (Rattus norvegicus)
Sequence (P25099 whole entry): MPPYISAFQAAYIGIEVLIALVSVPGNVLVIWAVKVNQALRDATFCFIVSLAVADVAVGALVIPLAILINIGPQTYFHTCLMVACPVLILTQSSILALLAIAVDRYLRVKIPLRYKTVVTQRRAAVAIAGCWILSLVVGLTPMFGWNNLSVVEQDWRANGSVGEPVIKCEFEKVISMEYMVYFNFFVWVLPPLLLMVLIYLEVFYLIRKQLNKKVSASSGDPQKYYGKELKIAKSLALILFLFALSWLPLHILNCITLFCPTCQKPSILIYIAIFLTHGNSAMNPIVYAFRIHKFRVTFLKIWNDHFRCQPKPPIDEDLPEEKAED
The following compounds were reported with Ki values on Adenosine receptor A1 (Rattus norvegicus) in different studies.

Some compounds with known Ki results, for comparison:
Find Ki (Adenosine receptor A1 (Rattus norvegicus)) for the entry COc1ccc(OC[C@H]2CC[C@H]3CN(c4nc(N)n5nc(-c6ccco6)nc5n4)CCN3C2)cc1 (racemic) > 0.5 µM

Find Ki (Adenosine receptor A1 (Rattus norvegicus)) for the entry `CCn1cc2c(nc(NC(=O)Nc3ccc(OC)cc3)n3nc(-c4ccco4)nc23)n1` > 10 µM

Find Ki (Adenosine receptor A1 (Rattus norvegicus)) for the entry `COc1ccccc1NC(=O)Nc1nc(-c2cccnc2)nc2ccccc12` > 10 µM

Find Ki (Adenosine receptor A1 (Rattus norvegicus)) for the entry `CN(C)CCOc1ccc(N2CCCn3c2nc2c3c(=O)n(C)c(=O)n2C)cc1` > 1 µM

New cases:
Find Ki (Adenosine receptor A1 (Rattus norvegicus)) for the entry `Cn1c(=O)c2c(nc3n2CCCN3CCc2ccncc2)n(C)c1=O` > 1 µM
